The molecules listed here are annotated with their GI50.
experiment: Growth inhibition of NCI60 cells after 48 hrs
Format: functional
measurement-conditions: Homo sapiens, NCI60, 48 h
Give just the number in nM; leave the unit off.

// sample CC(C)=CCc1c(O)cc(/C=C/c2cc(O)c3c(c2)C[C@@H]2C(C)(C)[C@H](O)[C@H](O)C[C@@]2(C)O3)cc1O , its GI50 was 80

###

experiment: Growth inhibition of NCI60 cells after 48 hrs
Type: functional
measurement-conditions: Homo sapiens, NCI60, 48 h
quantity: GI50 (nM)
Give just the number in nM; leave the unit off.

INSERT INTO assay_data (molecule, scale_unit, measured_value) VALUES
  ('CC(C)=CCC/C(C)=C/Cc1c(O)cc(/C=C/c2cc(O)c3c(c2)C[C@@H]2C(C)(C)[C@H](O)[C@H](O)C[C@@]2(C)O3)cc1O', 'nM', 360),
  ('COc1cc(/C=C/c2cc(O)c(CC=C(C)C)c(O)c2)cc2c1O[C@@]1(C)CC[C@H](O)C(C)(C)[C@@H]1C2 (single isomer, unassigned)', 'nM', 130),
  ('COc1cc(/C=C/c2cc3c(c(OC)c2)O[C@]2(C)CC[C@@H](O)C(C)(C)[C@H]2C3)cc(O)c1CC=C(C)C', 'nM', 870),
  ('COc1cc(/C=C/c2cc(O)c(CC=C(C)C)c(O)c2)cc2c1O[C@]1(C)CC[C@@H](O)C(C)(C)[C@H]1C2 (single isomer, unassigned)', 'nM', 410);

// sample COc1cc(/C=C/c2cc3c(c(OC)c2)O[C@@]2(C)CC[C@H](O)C(C)(C)[C@@H]2C3)cc(O)c1CC=C(C)C , its GI50 was 4600

// sample COc1cc(/C=C/c2cc(O)c(C/C=C(\C)CCC=C(C)C)c(O)c2)cc2c1O[C@]1(C)C[C@@H](O)[C@@H](O)C(C)(C)[C@H]1C2 , its GI50 was 810
